# Study Target: SMARCA2 (Homo sapiens, UniProt P51531)
# Construct: SMARCA2-HiBiT knock-in Hela monoclonal cell (CS302366); host or cells: HeLa monoclonal cells with heterozygous HiBiT knock-in at the endogenous SMARCA2 locus
# Sequence (P51531 whole entry): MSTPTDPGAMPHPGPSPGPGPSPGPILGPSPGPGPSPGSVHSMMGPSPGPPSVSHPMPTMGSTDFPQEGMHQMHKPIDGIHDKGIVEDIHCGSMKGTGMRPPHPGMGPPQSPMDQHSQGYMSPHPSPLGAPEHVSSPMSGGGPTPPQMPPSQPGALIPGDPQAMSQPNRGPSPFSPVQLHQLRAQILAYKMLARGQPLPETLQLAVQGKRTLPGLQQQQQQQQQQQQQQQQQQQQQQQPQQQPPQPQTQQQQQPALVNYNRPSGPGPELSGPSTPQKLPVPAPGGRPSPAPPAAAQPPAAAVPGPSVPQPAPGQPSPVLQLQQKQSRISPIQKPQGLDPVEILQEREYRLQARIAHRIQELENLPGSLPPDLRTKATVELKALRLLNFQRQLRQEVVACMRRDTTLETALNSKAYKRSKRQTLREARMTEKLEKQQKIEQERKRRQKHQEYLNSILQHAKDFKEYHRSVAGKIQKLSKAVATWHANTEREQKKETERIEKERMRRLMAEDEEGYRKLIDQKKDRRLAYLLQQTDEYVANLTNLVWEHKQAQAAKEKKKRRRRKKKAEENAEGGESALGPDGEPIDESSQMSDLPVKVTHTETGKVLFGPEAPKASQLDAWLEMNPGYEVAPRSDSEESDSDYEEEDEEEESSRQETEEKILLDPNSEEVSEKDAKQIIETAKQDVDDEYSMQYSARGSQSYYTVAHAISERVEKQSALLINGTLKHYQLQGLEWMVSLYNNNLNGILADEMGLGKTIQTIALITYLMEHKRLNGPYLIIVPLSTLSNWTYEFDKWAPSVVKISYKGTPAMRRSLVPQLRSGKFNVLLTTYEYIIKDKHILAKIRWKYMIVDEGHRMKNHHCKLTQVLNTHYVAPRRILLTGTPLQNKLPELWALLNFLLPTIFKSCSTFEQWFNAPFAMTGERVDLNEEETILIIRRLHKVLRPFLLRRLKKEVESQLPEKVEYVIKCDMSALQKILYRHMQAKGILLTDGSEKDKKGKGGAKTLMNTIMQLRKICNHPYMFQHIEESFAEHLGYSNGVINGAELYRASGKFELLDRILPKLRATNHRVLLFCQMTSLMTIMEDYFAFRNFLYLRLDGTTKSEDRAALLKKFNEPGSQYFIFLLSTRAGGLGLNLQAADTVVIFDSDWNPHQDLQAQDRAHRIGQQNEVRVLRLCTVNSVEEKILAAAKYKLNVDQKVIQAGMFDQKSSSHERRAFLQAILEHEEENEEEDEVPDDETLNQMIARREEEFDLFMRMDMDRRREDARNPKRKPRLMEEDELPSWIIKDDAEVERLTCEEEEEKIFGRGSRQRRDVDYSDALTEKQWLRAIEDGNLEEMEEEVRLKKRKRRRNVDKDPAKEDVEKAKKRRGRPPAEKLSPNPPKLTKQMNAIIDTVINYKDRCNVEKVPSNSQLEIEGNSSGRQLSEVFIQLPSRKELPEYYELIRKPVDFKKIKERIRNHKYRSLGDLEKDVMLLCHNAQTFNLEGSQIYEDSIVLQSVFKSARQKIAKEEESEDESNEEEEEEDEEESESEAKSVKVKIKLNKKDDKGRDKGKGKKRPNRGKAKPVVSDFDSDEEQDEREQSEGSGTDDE
# Assay Info: SMARCA2 HiBiT degradation assay in HeLa cells
# Type: cell-based
# Test Conditions: 18 hours, highest concentration 10 μM
Experimental Readout: Dmax

Cc1c(O[C@H]2CN3c4cc(-c5cccc(F)c5O)nnc4NC[C@@]3(C(F)F)C2)cnc(CN2CCN(c3ccc4c(c3)C(=O)N([C@H]3CCC(=O)NC3=O)C4)CC2)c1F	50 to 75%
CC[C@]12CNc3nnc(-c4cccc(C)c4O)cc3N1C[C@H](Oc1nc(C)c(CN3CCC(c4ccc5c(c4)C(=O)N([C@H]4CCC(=O)NC4=O)C5)CC3)c(C)n1)C2	> 75%

(Q) Identify the reported Dmax for the following entry. Cc1nc(O[C@H]2CN3c4cc(-c5cccc(F)c5O)nnc4NC[C@]3(C(F)F)C2)nc(C)c1CN1CCN(c2ccc3c(c2)C(=O)N(C2CCC(=O)NC2=O)C3)CC1 (some centres unmarked)
(A) > 75%

(Q) Identify the reported Dmax for the following entry. Cc1cc(O[C@H]2CN3c4cc(-c5cccc(F)c5O)nnc4NC[C@@]3(CF)C2)ncc1CN1CCC(c2ccc3c(c2)C(=O)N([C@H]2CCC(=O)NC2=O)C3)CC1
(A) > 75%

(Q) Identify the reported Dmax for the following entry. Cc1nc(O[C@H]2CN3c4cc(-c5cccc(F)c5O)nnc4NC[C@@]3(C)C2)nc(C)c1CN1CCN(c2ccc3c(c2)C(=O)N([C@H]2CCC(=O)NC2=O)C3)CC1
(A) > 75%

Numbers sourced from patent US20240165244A1.
